Overview of reported inhibition across a group of compounds:
Biological target: Bifunctional protein GlmU (Mycobacterium tuberculosis (strain ATCC 25618 / H37Rv)) (UniProt P9WMN3)
Sequence (P9WMN3 whole entry, looked up): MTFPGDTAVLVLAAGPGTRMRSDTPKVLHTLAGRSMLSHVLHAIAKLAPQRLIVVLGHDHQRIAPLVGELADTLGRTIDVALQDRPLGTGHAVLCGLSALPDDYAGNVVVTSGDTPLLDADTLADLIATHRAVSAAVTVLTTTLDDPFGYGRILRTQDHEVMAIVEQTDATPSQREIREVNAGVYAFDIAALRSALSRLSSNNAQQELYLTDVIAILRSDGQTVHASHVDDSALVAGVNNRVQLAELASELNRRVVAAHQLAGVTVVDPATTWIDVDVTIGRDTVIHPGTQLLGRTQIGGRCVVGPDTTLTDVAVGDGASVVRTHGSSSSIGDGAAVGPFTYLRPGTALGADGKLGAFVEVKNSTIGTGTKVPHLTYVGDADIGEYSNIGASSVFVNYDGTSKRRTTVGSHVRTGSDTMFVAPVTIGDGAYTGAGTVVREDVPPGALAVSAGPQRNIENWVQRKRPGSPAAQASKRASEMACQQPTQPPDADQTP
Test: inhibition of mycobacterial GlmU enzyme – biochemical, glucosamine-1-phosphate acetyltransferase (AID 1376);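 also: 0% = complete reaction with vehicle and 100% = reaction without substrate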
Settings: M. tuberculosis GlmU acetyltransferase enzyme assay; hits give high values;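 tested at 30 µM in the primary screen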
The whole screen tested about 220,000 compounds, of which about 530 (0.24%) were called active. What follows is part of a selection rich in actives, with near analogues and random picks from the rest. Entries with a potency or affinity are not part of this list.
State just the number; it will be interpreted in %.

>>> measured_number("COc1ccc(C(=O)C2CCCN(C(=O)Cc3c(C)noc3C)C2)cc1OC (stereo unspecified)")
-6.51
>>> measured_number("O=C(O)CCCN1C(=O)/C(=C/C=C/c2ccco2)SC1=S")
5.29
>>> measured_number("CCN(CC)c1ccc(/C=c2\\sc3nc4ccccc4n3c2=O)c(O)c1")
-2.52
>>> measured_number("C=CCOc1c2ccc(C(=O)NCc3ccc(C)cc3)cc2nn1C")
1.15
>>> measured_number("Cc1ccc(S(=O)(=O)N2CCN(c3ccccn3)CC2)cc1")
3.12

Now examine the next entry.
input: Bench note: what inhibition did O=c1c2c([nH]c3ccccc13)CCCCCC2 show?
output: 13.9
